Tested on: Escherichia coli
method: Antibacterial activity against Escherichia coli assessed as bacterial growth inhibition incubated for 18 hrs by twofold serial dilution assay
Assay type: functional
Hi! Could you tag entries with MIC below 0.05 µg/mL as class 1, and those at or above as class 0? Much appreciated.

Solved entries:
CCn1cc(C(=O)O)c(=O)c2cc(F)c(N3CCNCC3)cc21 [NORFLOXACIN]: class 0
CO/N=C(/CN1CCN(c2cc3c(cc2F)c(=O)c(C(=O)O)cn3C2CC2)CC1)c1cccs1: class 1
O=C(CN1CCN(c2cc3c(cc2F)c(=O)c(C(=O)O)cn3C2CC2)CC1)c1cccs1: class 1
O=C(O)c1cn(C2CC2)c2c(F)c(N3CCCNCC3)c(F)cc2c1=O: class 1

Attention now turns to another entry.
stdin: # strict comparison: is reported MIC < 0.05 µg/mL? input = CCn1cc(C(=O)O)c(=O)c2cc(F)c(N3CCNCC3)nc21 [ENOXACIN]
stdout: class 0

FYI, the data here is from ChEMBL document CHEMBL5244219.
